Molecular target: T1, human MSLN-FL-his protein (human, UniProt Q13421 296-580)
T1 construct: also called human MSLN full-length protein; hMSLN-FL-his; not shown: His tag
T1 sequence (Q13421 other isoform, or with tags, fused parts or gaps): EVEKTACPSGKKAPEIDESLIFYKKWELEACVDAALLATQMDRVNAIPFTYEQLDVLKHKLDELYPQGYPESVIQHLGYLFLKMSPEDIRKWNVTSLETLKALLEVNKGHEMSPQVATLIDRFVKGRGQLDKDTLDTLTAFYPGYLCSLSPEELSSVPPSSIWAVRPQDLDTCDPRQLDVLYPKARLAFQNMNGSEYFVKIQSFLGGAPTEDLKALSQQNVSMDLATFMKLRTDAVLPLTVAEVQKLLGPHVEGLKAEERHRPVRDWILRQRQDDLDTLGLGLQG
Assay: ELISA, coated antigen; antibody 0.0001 nM
MEASURED_ENDPOINT: OD450

BINDER	RESULT
S009-F6-62.5 (antibody, human IgG1, kappa, V domains shown, Human-murine chimeric antibody, human IgG1/kappa constant regions) VH: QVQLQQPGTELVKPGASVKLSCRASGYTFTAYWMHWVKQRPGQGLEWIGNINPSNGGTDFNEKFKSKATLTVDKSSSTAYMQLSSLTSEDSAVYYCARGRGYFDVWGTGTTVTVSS VL: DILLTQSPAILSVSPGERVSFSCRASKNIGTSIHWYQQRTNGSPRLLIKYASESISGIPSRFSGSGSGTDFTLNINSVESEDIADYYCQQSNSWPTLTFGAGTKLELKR	0.05 OD450
S009-F6-76.1 (antibody, human IgG1, kappa, V domains shown, Human-murine chimeric antibody, human IgG1/kappa constant regions) VH: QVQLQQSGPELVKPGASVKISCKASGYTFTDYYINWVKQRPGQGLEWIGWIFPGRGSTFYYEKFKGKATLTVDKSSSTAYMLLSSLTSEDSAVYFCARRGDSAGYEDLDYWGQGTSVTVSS VL: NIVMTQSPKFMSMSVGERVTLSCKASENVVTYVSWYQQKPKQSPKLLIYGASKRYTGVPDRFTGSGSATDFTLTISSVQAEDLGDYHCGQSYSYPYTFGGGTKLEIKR	0.1 OD450
S009-F4-94.15 (antibody, human IgG1, kappa, V domains shown, Human-murine chimeric antibody, human IgG1/kappa constant regions) VH: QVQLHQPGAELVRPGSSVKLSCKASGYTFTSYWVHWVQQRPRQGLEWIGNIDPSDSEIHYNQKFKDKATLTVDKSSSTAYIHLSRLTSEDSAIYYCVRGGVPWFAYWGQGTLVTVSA VL: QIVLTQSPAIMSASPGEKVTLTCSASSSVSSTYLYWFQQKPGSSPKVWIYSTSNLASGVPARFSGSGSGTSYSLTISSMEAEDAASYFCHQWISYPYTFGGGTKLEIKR	0.06 OD450
S009-F5-9.16 (antibody, human IgG1, kappa, V domains shown, Human-murine chimeric antibody, human IgG1/kappa constant regions) VH: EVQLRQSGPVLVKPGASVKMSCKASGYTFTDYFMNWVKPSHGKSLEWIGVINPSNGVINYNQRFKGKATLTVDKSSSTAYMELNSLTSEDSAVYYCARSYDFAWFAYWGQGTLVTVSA VL: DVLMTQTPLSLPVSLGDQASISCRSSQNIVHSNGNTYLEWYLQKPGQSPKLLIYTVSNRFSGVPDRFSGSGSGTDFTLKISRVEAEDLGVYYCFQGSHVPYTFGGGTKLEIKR	0.04 OD450
